The measured values listed here are drawn from ChEMBL document CHEMBL3507680.

Some compounds, each annotated with its measured cytotoxicity at 70.5 h.
# Assay summary: Human HepG2 cell viability assay in 384 well format
# Assay type: toxicity, cell-based
# Design: dose 125 nL, time 70.5 hour; concentration not given beside the values
# Experimental context: HepG2 cells, read-out: Inhibition

Q. Give the measured cytotoxicity at 70.5 h of "COCCN(C)C[C@@H]1CN(c2nnc(C(C)C)s2)C[C@@H]1CO" .
A. -9.43%

Q. Give the measured cytotoxicity at 70.5 h of "O=C(c1ccc(Cl)s1)N1CCCn2nc(CN3CC[C@H](F)C3)cc2C1" .
A. -10.2%

----------
# Assay summary: Human HepG2 cell viability assay in 384 well format
# Type: toxicity, cell-based
# Parameters: dose 125 nL, time 70.5 hour; concentration not given beside the values
# Experimental context: HepG2 cells, read-out: Inhibition
Some compounds, each annotated with its measured cytotoxicity at 70.5 h.
// note: answer is a bare numeric in %

- Compound: "CC(NCc1cnc(C2CCC2)s1)c1ccc(-n2cccn2)cc1 (centres undefined)"
  Measurement label: "cytotoxicity at 70.5 h"
  Reported value: -8.33
- Compound: "COc1ccc(CNC(=O)Nc2ccc(CN3CCOC3=O)cc2)cc1"
  Measurement label: "cytotoxicity at 70.5 h"
  Reported value: -0.36
- Compound: "COc1ccc(CNC(=O)c2ccc(Br)cn2)cc1"
  Measurement label: "cytotoxicity at 70.5 h"
  Reported value: 13.3

Q. Give the measured cytotoxicity at 70.5 h of "CN(C1CCCC1)C(C)(C)C(=O)NCCNC(N)=O" .
A. -0.603

Q. Give the measured cytotoxicity at 70.5 h of "Cc1ccc(CN2CCOCC2)cc1NC(=O)c1ccsc1" .
A. -9.12

Q. Give the measured cytotoxicity at 70.5 h of NC(=O)CN1CCC(NC2CSCCc3ccccc32)CC1 (centres undefined) .
A. 5.08

Q. Give the measured cytotoxicity at 70.5 h of CC(CCc1ccccc1)CC(=O)NC1CCN(CC(N)=O)CC1 (centres undefined) .
A. 0.475

Q. Give the measured cytotoxicity at 70.5 h of "CC(C)(C)OC(=O)NCC1CCN(C(=O)c2ccccc2O)CC1" .
A. -7.62

Q. Give the measured cytotoxicity at 70.5 h of "O=C(c1ccccc1-n1cccn1)N1CCCN(c2cccnn2)CC1" .
A. -21.8

Q. Give the measured cytotoxicity at 70.5 h of "O=C(Cn1cc(C(=O)O)ccc1=O)NCc1ccc(F)c(Cl)c1" .
A. -13.4

Q. Give the measured cytotoxicity at 70.5 h of "CCCN1CCC(N(C)C(=O)c2cc(C)nc3cc(F)ccc23)CC1" .
A. -11.9

----------
# Assay summary: Human HepG2 cell viability assay in 384 well format
# Format: toxicity, cell-based
# Design: dose 125 nL, time 70.5 hour; concentration not given beside the values
# Experimental context: HepG2 cells, read-out: Inhibition
Some compounds, each annotated with its measured cytotoxicity at 70.5 h.
// note: answer is a bare numeric in %

Use the examples below as a reference point.
- Compound: "Cn1c(C(F)(F)F)nn(CCNC(=O)CCc2ccccc2)c1=O"
  U: "%"
  cytotoxicity at 70.5 h: 22.1
- Compound: "COCC(C)N1CCN(CCc2ccc3c(c2)CCO3)CC1 (centres undefined)"
  U: "%"
  cytotoxicity at 70.5 h: 21.8
- Compound: "Oc1cc(CN2CCC(O)(Cn3ccnc3)CC2)nc2c(Cl)cccc12"
  U: "%"
  cytotoxicity at 70.5 h: -9.08

Q. Give the measured cytotoxicity at 70.5 h of COCCc1noc(CN2CC(Cc3ccccc3)CC2=O)n1 (centres undefined) .
A. -20.5

Q. Give the measured cytotoxicity at 70.5 h of "CNC(=O)CNC(=O)Nc1ccc(Br)c(F)c1" .
A. -4.08

Q. Give the measured cytotoxicity at 70.5 h of O=C(CCCn1cncn1)N1CCCCC1c1nccs1 (centres undefined) .
A. -4.13

----------
# Assay summary: Human HepG2 cell viability assay in 384 well format
# Format: toxicity, cell-based
# Set-up: dose 125 nL, time 70.5 hour; concentration not given beside the values
# Experimental context: HepG2 cells, read-out: Inhibition
Measurement label: cytotoxicity at 70.5 h (%)
// note: answer is a bare numeric in %

Use the examples below as a reference point.
- Compound: "CC(CC#N)N(C)Cc1ccccc1F (stereo unspecified)"
  cytotoxicity at 70.5 h / %: -9.07
- Compound: "O=C(NCC(F)F)N1CCC(n2ccc(C(F)(F)F)n2)CC1"
  cytotoxicity at 70.5 h / %: 2.24
- Compound: "CC[C@H]1CN(S(C)(=O)=O)CC[C@H]1CC(=O)NCCSC"
  cytotoxicity at 70.5 h / %: -2.51

Q. Give the measured cytotoxicity at 70.5 h of Cc1cc(C(C)(O)CNC(=O)CCn2ccnc2C(C)C)c(C)o1 (stereo unspecified) .
A. 9.42

Q. Give the measured cytotoxicity at 70.5 h of "c1cc(N2CCC(c3nnc(Cn4ccnc4)n3C3CC3)CC2)ccn1" .
A. -6.52

Q. Give the measured cytotoxicity at 70.5 h of O=S(=O)(c1ccc(-c2cnco2)cc1)N1CCCC(O)(CO)CC1 (stereo unspecified) .
A. 12.5

----------
Some compounds, each annotated with its measured cytotoxicity at 70.5 h.
# Assay summary: Human HepG2 cell viability assay in 384 well format
# Type: toxicity, cell-based
# Parameters: dose 125 nL, time 70.5 hour; concentration not given beside the values
# Experimental context: HepG2 cells, read-out: Inhibition
// note: answer is a bare numeric in %

Use the examples below as a reference point.
- Compound: "COCCN1CCC(C(=O)N(C)Cc2c[nH]c3ccc(C)cc23)C1 (stereo unspecified)"
  U: "%"
  Reported value: -8.11
- Compound: "O=C([C@H]1CCS(=O)(=O)[C@@H]2CN(Cc3ccc(F)cc3)C[C@H]12)N1CCCC1"
  U: "%"
  Reported value: -4.67
- Compound: "CCCn1ccnc1CN1C[C@@H](NC(C)=O)[C@H](c2ccc(OC)cc2)C1"
  U: "%"
  Reported value: 15.8
- Compound: "Cc1nc2c(c(C)c1CC(=O)Nc1ccnn1C(C)C)c(=O)[nH]n2C"
  U: "%"
  Reported value: 2.43
- Compound: "Cc1ccc(N2CCCC(NCC(=O)NC3CCOCC3)C2)nn1 (stereo unspecified)"
  U: "%"
  Reported value: -3.6
- Compound: "O=C(O)c1csc(S(=O)(=O)N2CCCc3cccc(OC(F)F)c32)c1"
  U: "%"
  Reported value: -5.21
- Compound: "Cc1noc(C)c1C(=O)N1C[C@H]2CCC[C@@]2(COc2ccccn2)C1"
  U: "%"
  Reported value: -11.3
- Compound: "O=C(c1cccnc1O)N1CCN(Cc2ccccc2F)CC1"
  U: "%"
  Reported value: 17.4
- Compound: "Cc1noc(-c2ccc(N(C)Cc3nccs3)nc2)n1"
  U: "%"
  Reported value: -9.04
- Compound: "Cc1cc(C(=O)NCC(c2ccsc2)N(C)C)no1 (stereo unspecified)"
  U: "%"
  Reported value: -5.66

Q. Give the measured cytotoxicity at 70.5 h of "CC(=O)NCc1nnc2n1CCN(c1ncnc3c1CCC3)CC2" .
A. 25.3

Q. Give the measured cytotoxicity at 70.5 h of "Cc1cc(-n2c(C)cn(CN(C)Cc3ccccc3)c2=O)no1" .
A. -5.85

Q. Give the measured cytotoxicity at 70.5 h of "CN1CCC(NN2CCN(C)CC2)CC1" .
A. -17.5

Q. Give the measured cytotoxicity at 70.5 h of "CCN1CCC(CC(=O)NCc2cc(C)nn2C)CC1" .
A. -4.69

Q. Give the measured cytotoxicity at 70.5 h of "Cc1ccc(CN2CCS(=O)(=O)C(C)(C)C2)cc1C" .
A. 20.3

Q. Give the measured cytotoxicity at 70.5 h of CCN(Cc1ccc(F)cc1Cl)C1CCS(=O)(=O)C1 (stereo unspecified) .
A. -19.3

Q. Give the measured cytotoxicity at 70.5 h of CC(C)c1n[nH]c(C2CN(C(=O)c3ccnc(C4CC4)n3)CCO2)n1 (stereo unspecified) .
A. 16.3

----------
# Assay summary: Human HepG2 cell viability assay in 384 well format
# Format: toxicity, cell-based
# Design: dose 125 nL, time 70.5 hour; concentration not given beside the values
# Experimental context: HepG2 cells, read-out: Inhibition
Some molecules, each annotated with its measured cytotoxicity at 70.5 h.
Include the unit after the number when you answer.

Use the examples below as a reference point.
- Molecule: "Cn1ccc(CN2CCC3(CCCN3CC3CC3)CC2)n1"
  cytotoxicity at 70.5 h: "-6.07%"
- Molecule: "O=C(Cn1ccc2ccccc21)NC[C@@H]1CCCN2CCCC[C@H]12"
  cytotoxicity at 70.5 h: "-10.1%"
- Molecule: "CN(Cc1cn2c(n1)CN(Cc1ccsc1)CC2)Cc1ccco1"
  cytotoxicity at 70.5 h: "-6.14%"
- Molecule: "Cc1nccn1C1(C(=O)O)CCN(Cc2ccc3nsnc3c2)CC1"
  cytotoxicity at 70.5 h: "-7%"
- Molecule: "CS(=O)(=O)NCC(=O)NCc1cccnc1-n1cnc2ccccc21"
  cytotoxicity at 70.5 h: "17.2%"

Q. Give the measured cytotoxicity at 70.5 h of "Cc1ccc(N2CC[C@@H]3CN(Cc4cc[nH]n4)C[C@@H]3C2)nn1" .
A. -2.82%

Q. Give the measured cytotoxicity at 70.5 h of CC(C)c1n[nH]c(C2CN(Cc3ccno3)CCO2)n1 (stereo unspecified) .
A. 0.21%

Q. Give the measured cytotoxicity at 70.5 h of O=C(NC1CC(=O)N(C2Cc3ccccc3C2)C1)c1ccoc1 (stereo unspecified) .
A. -2.92%

Q. Give the measured cytotoxicity at 70.5 h of CNC(=O)CN1CCC(NC(=O)C(C)Oc2ccccc2C#N)CC1 (stereo unspecified) .
A. -3.18%

Q. Give the measured cytotoxicity at 70.5 h of "Cc1nnc(SCCC(=O)N(C)Cc2ccc(F)cc2F)[nH]1" .
A. 4.62%

Q. Give the measured cytotoxicity at 70.5 h of "COCCNC(=O)c1nc2c(s1)CCCN2Cc1ccccc1" .
A. -6.6%
